Assay: reducers of endogenous Her2 protein level, primary screen, SKBR3 breast tumor cells, AlphaScreen, ATP viability (AID 461);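 also: percent of carrier control wells set as 100% viability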
Conditions: 18-24 h, measured here: SKBR3 viability, ATP luminescence, at 10 µM
Consider the following compounds and their measured viability readings.
# value in %; strip the unit string

{"columns": ["COMPOUND", "viability / %"],
 "data": [
  ["COC(=O)[C@H](CCSC)NC(=O)Nc1cc(C)ccc1C", 124],
  ["CCOc1ccc(-c2nc(S(=O)(=O)c3ccccc3)c(NCc3cccnc3)o2)cc1", 97]
]}

Give the reported viability for this compound. Cc1ccc(CCNC(=O)C2CCN(S(=O)(=O)c3cccc4nsnc34)CC2)cc1 93.5

Give the reported viability for this compound. CCC(C(=O)Nc1ccccc1C(=O)N1CCCC1)N1C(=O)c2ccccc2C1=O (stereo not given) 96.5

Give the reported viability for this compound. Cc1ccc(S(=O)(=O)N(C)c2ccc(OCC(=O)OCc3c(C)noc3C)cc2)cc1 92.5
